- Test system: Salmonella choleraesuis
- protocol-description: MIC, agar dilution, Salmonella choleraesuis
- Type: cell-based
- assay-setup: Salmonella enterica, CHOLERAESUIS / UC6077; strain UC6077; read-out: MIC
Kindly state MIC for each of the entries shown.
Answers are plain numbers, in µg/mL.

Parameters: items (list). Returns: MIC for each item.
1. CO/N=C(\C(=O)N[C@@H]1C(=O)N2C(C(=O)O)=C(CSSC3CCCCC3)CS[C@H]12)c1csc(N)n1
2. CO/N=C(\C(=O)N[C@@H]1C(=O)N2C(C(=O)O)=C(CSSCC3=C(C(=O)O)N4C(=O)[C@@H](NC(=O)/C(=N\OC)c5csc(N)n5)[C@H]4SC3)CS[C@H]12)c1csc(N)n1
3. CO/N=C(\C(=O)N[C@@H]1C(=O)N2C(C(=O)O)=C(CSSc3ccc([N+](=O)[O-])cc3)CS[C@H]12)c1csc(N)n1
4. CO/N=C(\C(=O)N[C@@H]1C(=O)N2C(C(=O)O)=C(CSSc3ccc(Cl)cc3)CS[C@H]12)c1csc(N)n1

Key:
16
8
4
8

Quick request: MIC for each listed item, please.
1. CO/N=C(\C(=O)N[C@@H]1C(=O)N2C(C(=O)O)=C(CSSCc3ccco3)CS[C@H]12)c1csc(N)n1
2. CO/N=C(\C(=O)N[C@@H]1C(=O)N2C(C(=O)O)=C(CSSC)CS[C@H]12)c1csc(N)n1
3. CCCCSSCC1=C(C(=O)O)N2C(=O)[C@@H](NC(=O)/C(=N\OC)c3csc(N)n3)[C@H]2SC1

Key:
[32, 4, 32]
